Molecular target: RSV prefusion F, subtype A (preF, DS-Cav1 trimer) (Respiratory syncytial virus subtype A, UniProt P03420 26-513)
Assay: BLI, IgG apparent affinity
Readout name: Kd
Answer with the number, then the unit.

Kindly indicate its recorded Kd. Item: ADI-21076 (antibody, V domains shown) VH: EVQLVESGGGLVRPGGSLRLSCAASGFTFSSYAMDWVRQAPGKGLEWVSSISASSSFISYTDSVKGRFTISRDNAKNSLFLQMDNVTAEDTAVYYCARDYYESGRYFYGNPFDIWGQGTMVTVSS VL: QPVLTQPPSVSGAPGQRVTISCTGSGSNIGAGFDVHWYQQLPGTAPKLLIYANSDRPSGVPDRFSASKSGTSASLAITGLQAEDEAHYYCQSYDNSLGGLCVFGTGTKLTVL
0.219 nM

Recorded values, source patent US20260258115A1.
